Below, each of the compounds is paired with its reported EC50 value.
Target: CfEcR-DEF mutant T52W (Choristoneura fumiferana, UniProt O77255, T335W)
Sequence (O77255 entry or part of it T335W): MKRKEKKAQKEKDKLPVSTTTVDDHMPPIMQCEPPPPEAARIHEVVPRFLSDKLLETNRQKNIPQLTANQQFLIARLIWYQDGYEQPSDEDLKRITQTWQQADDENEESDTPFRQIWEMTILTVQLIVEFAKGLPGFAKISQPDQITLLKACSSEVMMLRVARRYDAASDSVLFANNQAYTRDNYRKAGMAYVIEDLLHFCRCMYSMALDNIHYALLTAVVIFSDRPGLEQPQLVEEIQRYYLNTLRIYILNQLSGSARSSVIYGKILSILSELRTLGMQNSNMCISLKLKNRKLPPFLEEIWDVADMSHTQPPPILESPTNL
Sequence (P28702 299-449, further chain): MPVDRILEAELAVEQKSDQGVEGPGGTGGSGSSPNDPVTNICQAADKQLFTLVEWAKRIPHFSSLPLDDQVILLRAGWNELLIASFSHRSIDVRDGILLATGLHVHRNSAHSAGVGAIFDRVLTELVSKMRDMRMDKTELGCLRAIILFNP
Assay: GAL4-driven luciferase reporter assay in NIH3T3 cells

[
  {
    "compound": "CCCCC(N(NC(=O)c1ccc(CC)cc1)C(=O)c1cc(C)cc(C)c1)C(C)(C)C (stereo not drawn)",
    "EC50 (µM)": 4.07
  },
  {
    "compound": "CCc1c(C(=O)NN(C(=O)c2cc(OC)c(C)c(OC)c2)C(C=C(C)C(C)(C)C)C(C)(C)C)ccc2c1OCCO2 (stereo not drawn)",
    "EC50 (µM)": 0.18
  },
  {
    "compound": "CCc1c(OC)cccc1C(=O)NN(C(=O)c1cc(C)cc(C)c1)C(C)(C)C",
    "EC50 (µM)": 18.3
  }
]

---

Target: CfEcR-DEF mutant F109L (Choristoneura fumiferana, UniProt O77255, F392L)
Sequence (O77255 entry or part of it F392L, one chain of several): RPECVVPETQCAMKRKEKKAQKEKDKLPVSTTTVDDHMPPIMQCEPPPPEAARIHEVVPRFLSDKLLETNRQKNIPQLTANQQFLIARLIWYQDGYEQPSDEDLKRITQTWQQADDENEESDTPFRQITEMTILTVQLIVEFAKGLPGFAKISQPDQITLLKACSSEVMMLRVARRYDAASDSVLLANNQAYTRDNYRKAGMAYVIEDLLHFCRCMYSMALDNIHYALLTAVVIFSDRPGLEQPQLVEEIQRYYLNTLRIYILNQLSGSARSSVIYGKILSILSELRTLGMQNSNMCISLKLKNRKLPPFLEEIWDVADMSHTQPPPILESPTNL
Test: cell-based
Below, each of the molecules is paired with its reported EC50 value.

[
  {
    "smiles.repr": "Cc1cc(C)cc(C(=O)N(NC(=O)c2cccc(C(C)C)c2C)C(C)(C)C)c1",
    "measured.on": "CfEcR-DEF mutant F109L (Choristoneura fumiferana, UniProt O77255, F392L)",
    "EC50": "~2500 nM"
  },
  {
    "smiles.repr": "CCc1c(OC)cccc1C(=O)NN(C(=O)c1cc(C)cc(C)c1)C(C)(C)C",
    "measured.on": "CfEcR-DEF mutant F109L (Choristoneura fumiferana, UniProt O77255, F392L)",
    "EC50": "~2000 nM"
  },
  {
    "smiles.repr": "CCc1cccc(C(=O)NN(C(=O)c2cc(C)cc(C)c2)C(C)(C)C)c1C",
    "measured.on": "CfEcR-DEF mutant F109L (Choristoneura fumiferana, UniProt O77255, F392L)",
    "EC50": "2340 nM"
  }
]

---

Below, each of the compounds is paired with its reported EC50 value.
Molecular target: CfEcR-DEF mutant A110W (Choristoneura fumiferana, UniProt O77255, A393W)
Sequence (P28702 299-449, stated change not applied): as the sequence (P28702 299-449, further chain) above
Sequence (O77255 entry or part of it A393W): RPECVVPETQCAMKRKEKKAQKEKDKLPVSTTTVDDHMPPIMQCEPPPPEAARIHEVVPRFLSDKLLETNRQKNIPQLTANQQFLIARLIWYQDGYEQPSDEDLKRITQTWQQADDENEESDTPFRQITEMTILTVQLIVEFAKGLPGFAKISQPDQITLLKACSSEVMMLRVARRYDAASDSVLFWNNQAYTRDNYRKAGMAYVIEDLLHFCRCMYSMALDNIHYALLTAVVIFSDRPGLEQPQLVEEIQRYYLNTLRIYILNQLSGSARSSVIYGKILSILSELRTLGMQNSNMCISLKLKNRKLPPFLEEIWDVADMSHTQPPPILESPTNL
Assay: cell-based

[
  {
    "compound": "CCc1cccc(C(=O)NN(C(=O)c2cc(C)cc(C)c2)C(C)(C)C)c1C [RG-101691]",
    "measured.on": "CfEcR-DEF mutant A110W (Choristoneura fumiferana, UniProt O77255, A393W)",
    "EC50 (nM)": 1060
  },
  {
    "compound": "Cc1cc(C)cc(C(=O)N(NC(=O)c2cccc(C(C)C)c2C)C(C)(C)C)c1 [RG-102362]",
    "measured.on": "CfEcR-DEF mutant A110W (Choristoneura fumiferana, UniProt O77255, A393W)",
    "EC50 (nM)": 2990
  },
  {
    "compound": "CCc1c(OC)cccc1C(=O)NN(C(=O)c1cc(C)cc(C)c1)C(C)(C)C [RG-102240]",
    "measured.on": "CfEcR-DEF mutant A110W (Choristoneura fumiferana, UniProt O77255, A393W)",
    "EC50 (nM)": 1370
  }
]

---

Biological target: CfEcR-DEF mutant M219K (Choristoneura fumiferana, UniProt O77255, M502K)
Sequence (P28702 299-449): as the sequence (P28702 299-449, further chain) above
Sequence (O77255 entry or part of it M502K): as the sequence (O77255 entry or part of it A393W) above, with W187A, M296K counted along it
Test: GAL4-driven luciferase reporter assay in NIH3T3 cells
Format: cell-based
Experimental: This construct was prepared in the same way as in switch 1.1 above except wild-type CfEcR-DEF was replaced with mutant CfEcR-DEF comprising a ligand binding domain comprising a substitution mutation selected from Table 1 below. […] Reporter Assays: Cells were harvested 40 hours after adding ligands. […] Luciferase activity was measured using Dual-Luciferase reporter assay system from Promega Corporation following the manufacturer's instructions. […]
parameter: EC50

[
  {
    "compound": "CCc1c(OC)cccc1C(=O)NN(C(=O)c1cc(C)cc(C)c1)C(C)(C)C [RG-102240]",
    "reported.result": "2.9 µM"
  },
  {
    "compound": "CCc1c(C(=O)NN(C(=O)c2cc(OC)c(C)c(OC)c2)C(C=C(C)C(C)(C)C)C(C)(C)C)ccc2c1OCCO2 (stereo not drawn) [RG-115898]",
    "reported.result": "> 33 µM"
  },
  {
    "compound": "CCCCC(N(NC(=O)c1ccc(CC)cc1)C(=O)c1cc(C)cc(C)c1)C(C)(C)C (stereo not drawn) [RG-115840]",
    "reported.result": "> 33 µM"
  }
]

---

Target: CfEcR-DEF mutant M92L (Choristoneura fumiferana, UniProt O77255, M375L)
Sequence (O77255 entry or part of it M375L, one chain of several): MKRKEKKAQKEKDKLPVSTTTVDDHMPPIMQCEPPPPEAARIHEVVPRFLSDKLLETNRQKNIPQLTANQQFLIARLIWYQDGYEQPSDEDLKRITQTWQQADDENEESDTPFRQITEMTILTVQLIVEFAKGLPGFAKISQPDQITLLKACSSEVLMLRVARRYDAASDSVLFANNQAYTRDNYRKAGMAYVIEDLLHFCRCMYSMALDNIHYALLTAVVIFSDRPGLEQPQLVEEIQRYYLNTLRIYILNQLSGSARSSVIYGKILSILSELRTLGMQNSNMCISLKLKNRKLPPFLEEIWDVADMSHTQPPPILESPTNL
Experiment: cell-based
pEC50: −log10 of the molar value.
parameter: pEC50

[
  {
    "molecule": "Cc1cc(C)cc(C(=O)N(NC(=O)c2cccc(C(C)C)c2C)C(C)(C)C)c1 [RG-102362]",
    "measured.on": "CfEcR-DEF mutant M92L (Choristoneura fumiferana, UniProt O77255, M375L)",
    "reported.result": "~4.70"
  },
  {
    "molecule": "CCc1c(OC)cccc1C(=O)NN(C(=O)c1cc(C)cc(C)c1)C(C)(C)C [RG-102240]",
    "measured.on": "CfEcR-DEF mutant M92L (Choristoneura fumiferana, UniProt O77255, M375L)",
    "reported.result": "~5.10"
  },
  {
    "molecule": "CCc1cccc(C(=O)NN(C(=O)c2cc(C)cc(C)c2)C(C)(C)C)c1C [RG-101691]",
    "measured.on": "CfEcR-DEF mutant M92L (Choristoneura fumiferana, UniProt O77255, M375L)",
    "reported.result": 5.00
  }
]

---

Molecular target: CfEcR-DEF mutant M125L (Choristoneura fumiferana, UniProt O77255, M408L)
Sequence (P28702 299-449): as the sequence (P28702 299-449, further chain) above
Sequence (O77255 entry or part of it M408L): as the sequence (O77255 entry or part of it T335W) above, with W117T, M190L counted along it
Assay: cell-based
Settings: mutant M125L; read-out: EC50
pEC50: −log10 of the molar value.

[
  {
    "molecule": "CC(C)CC[C@@H](O)[C@](C)(O)[C@H]1CC[C@@]2(O)C3=CC(=O)[C@@H]4C[C@@H](O)[C@@H](O)C[C@]4(C)[C@H]3CC[C@]12C",
    "pEC50": "< 4.48"
  },
  {
    "molecule": "CC(C)(O)CC[C@@H](O)[C@](C)(O)[C@H]1CC[C@@]2(O)C3=CC(=O)[C@@H]4C[C@@H](O)[C@@H](O)C[C@]4(C)[C@H]3CC[C@]12C [20E, 20-hydroxyecdysone]",
    "pEC50": "< 4.48"
  }
]

---

Below, each of the compounds is paired with its reported pEC50 value.
Target: CfEcR-DEF mutant T52L (Choristoneura fumiferana, UniProt O77255, T335L)
Assay: cell-based
Details: mutant T52L; read-out: EC50
pEC50: −log10 of the molar value.

[
  {
    "compound": "CC(C)CC[C@@H](O)[C@](C)(O)[C@H]1CC[C@@]2(O)C3=CC(=O)[C@@H]4C[C@@H](O)[C@@H](O)C[C@]4(C)[C@H]3CC[C@]12C",
    "comparative.sign": "=",
    "pEC50": 5.30
  },
  {
    "compound": "CC(C)(O)CC[C@@H](O)[C@](C)(O)[C@H]1CC[C@@]2(O)C3=CC(=O)[C@@H]4C[C@@H](O)[C@@H](O)C[C@]4(C)[C@H]3CC[C@]12C [20E, 20-hydroxyecdysone]",
    "comparative.sign": "<",
    "pEC50": 4.48
  }
]

---

Molecular target: CfEcR-DEF mutant M54T (Choristoneura fumiferana, UniProt O77255, M337T)
Sequence (O77255 entry or part of it M337T, one chain of several): as the sequence (O77255 entry or part of it F392L, one chain of several) above, with M131T, L186F counted along it
Assay: cell-based
pEC50: −log10 of the molar value.
Below, each of the compounds is paired with its reported pEC50 value.
parameter: pEC50

[
  {
    "smiles.repr": "CCc1c(OC)cccc1C(=O)NN(C(=O)c1cc(C)cc(C)c1)C(C)(C)C",
    "reported.result": 7.10
  },
  {
    "smiles.repr": "CCc1cccc(C(=O)NN(C(=O)c2cc(C)cc(C)c2)C(C)(C)C)c1C",
    "reported.result": 7.52
  },
  {
    "smiles.repr": "Cc1cc(C)cc(C(=O)N(NC(=O)c2cccc(C(C)C)c2C)C(C)(C)C)c1",
    "reported.result": 7.30
  }
]

---

Molecular target: CfEcR-DEF mutant Y120M (Choristoneura fumiferana, UniProt O77255, Y403M)
Sequence (O77255 entry or part of it Y403M): as the sequence (O77255 entry or part of it T335W) above, with W117T, Y185M counted along it
Sequence (P28702 299-449, further chain): as the sequence (P28702 299-449, further chain) above
Experiment: cell-based
Conditions: mutant Y120M; read-out: EC50
pEC50: −log10 of the molar value.
Below, each of the compounds is paired with its reported pEC50 value.

[
  {
    "compound": "CC(C)CC[C@@H](O)[C@](C)(O)[C@H]1CC[C@@]2(O)C3=CC(=O)[C@@H]4C[C@@H](O)[C@@H](O)C[C@]4(C)[C@H]3CC[C@]12C",
    "measured.on": "CfEcR-DEF mutant Y120M (Choristoneura fumiferana, UniProt O77255, Y403M)",
    "pEC50": "< 4.48"
  },
  {
    "compound": "CC(C)(O)CC[C@@H](O)[C@](C)(O)[C@H]1CC[C@@]2(O)C3=CC(=O)[C@@H]4C[C@@H](O)[C@@H](O)C[C@]4(C)[C@H]3CC[C@]12C [20E, 20-hydroxyecdysone]",
    "measured.on": "CfEcR-DEF mutant Y120M (Choristoneura fumiferana, UniProt O77255, Y403M)",
    "pEC50": "< 4.48"
  }
]
